Every entry's value here was drawn from ChEMBL document CHEMBL4732182.

Recorded selectivity ratio for the following compounds
# Assay Text: Selectivity index, ratio of CC50 for human Huh-7 cells to EC50 for Ebola virus infected in human HuH7 cells
# Assay type: toxicity, cell-based
# Test Context: read-out: Ratio CC50/EC50
Property: selectivity ratio

- CCOP(=O)(Cc1cccc(COc2ccccc2OC2CCN(Cc3ccc4nc(-c5ccc(OC(F)(F)F)cc5)[nH]c4c3)CC2)c1)OCC: 2
- CCOP(=O)(Cc1ccc(COc2ccccc2OC2CCN(Cc3ccc4nc(-c5cccc(OC(F)(F)F)c5)[nH]c4c3)CC2)cc1)OCC: 5
- CCOP(=O)(Cc1ccc(COc2ccccc2OC2CCN(Cc3ccc4nc(-c5ccc(C(F)(F)F)cc5)[nH]c4c3)CC2)cc1)OCC: 2
- CCOP(=O)(Cc1ccc(COc2ccccc2CC2CCN(Cc3ccc4nc(-c5ccccc5)[nH]c4c3)CC2)cc1)OCC: 20
- CN(C)CCOc1ccc(/C(=C(\CCCl)c2ccccc2)c2ccccc2)cc1: 7
- CCOP(=O)(Cc1ccc(COc2ccccc2OC2CCN(Cc3ccc4nc(-c5ccc(OC(F)(F)F)cc5)[nH]c4c3)CC2)cc1)OCC: 4
- CCOP(=O)(Cc1ccc(COc2ccccc2OC2CCN(Cc3ccc4nc(-c5ccccc5)[nH]c4c3)CC2)cc1)OCC: 5
- CCOP(=O)(Cc1cccc(COc2ccccc2OC2CCN(Cc3ccc4nc(-c5ccccc5)[nH]c4c3)CC2)c1)OCC: 7
- CCOP(=O)(Cc1cccc(COc2ccccc2CC2CCN(Cc3ccc4nc(-c5ccccc5)[nH]c4c3)CC2)c1)OCC: 10
- CCOP(=O)(Cc1cccc(COc2ccccc2CC2CCN(Cc3ccc4nc(-c5cccc(OC(F)(F)F)c5)[nH]c4c3)CC2)c1)OCC: 5
- CCOP(=O)(Cc1ccc(COc2ccccc2OC2CCN(Cc3ccc4nc(-c5cccc(C(F)(F)F)c5)[nH]c4c3)CC2)cc1)OCC: 3

###

CC50 at 72 h for assorted molecules
# Assay Text: Cytotoxicity against human Huh-7 cells assessed as reduction in cell viability incubated for 3 days by cell-titer glo assay
# Format: cell-based
# Test Context: time 3 day
Property: CC50 at 72 h (µM)

- CCOP(=O)(Cc1ccc(COc2ccccc2OC2CCN(Cc3ccc4nc(-c5ccc(C(F)(F)F)cc5)[nH]c4c3)CC2)cc1)OCC: 3.82
- CCOP(=O)(Cc1ccc(COc2ccccc2OC2CCN(Cc3ccc4nc(-c5cccc(C(F)(F)F)c5)[nH]c4c3)CC2)cc1)OCC: 100
- CCOP(=O)(Cc1ccc(COc2ccccc2CC2CCN(Cc3ccc4nc(-c5ccccc5)[nH]c4c3)CC2)cc1)OCC: 13.2
- CN(C)CCOc1ccc(/C(=C(\CCCl)c2ccccc2)c2ccccc2)cc1: 2.5
